- Test system: recombinant soluble homotrimeric HA of A/duck/Yangzhou/02/05 (H8N4) (Influenza A virus A/duck/Yangzhou/02/2005(H8N4))
- Method notes: trimeric HA microarray, transfection supernatant set 5
- Condition details: remark: other sources report otherwise
Experimental readout: Trimeric HA Binding: RLU (RLU)

# Binder, Unit abbreviation, Recorded result
data = [
    ("TCN-546 (5089_L08) (antibody, V domains shown) VH: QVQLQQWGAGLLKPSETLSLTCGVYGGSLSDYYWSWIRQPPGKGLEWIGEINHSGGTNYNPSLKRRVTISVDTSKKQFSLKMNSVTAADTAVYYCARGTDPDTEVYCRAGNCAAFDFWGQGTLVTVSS VL: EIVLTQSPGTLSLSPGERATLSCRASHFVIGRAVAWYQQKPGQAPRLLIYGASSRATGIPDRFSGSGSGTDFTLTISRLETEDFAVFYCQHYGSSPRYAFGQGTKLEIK", "RLU", 11400),
    ("TCN-543 (5081_G23) (antibody, V domains shown) VH: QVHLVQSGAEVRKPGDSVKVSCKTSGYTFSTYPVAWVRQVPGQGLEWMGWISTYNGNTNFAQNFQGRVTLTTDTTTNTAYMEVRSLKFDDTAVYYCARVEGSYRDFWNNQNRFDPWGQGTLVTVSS VL: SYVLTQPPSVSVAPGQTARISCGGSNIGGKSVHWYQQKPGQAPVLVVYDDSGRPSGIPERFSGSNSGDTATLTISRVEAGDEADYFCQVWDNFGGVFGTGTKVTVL", "RLU", 13100),
    ("TCN-545 (5082_I15) (antibody, V domains shown) VH: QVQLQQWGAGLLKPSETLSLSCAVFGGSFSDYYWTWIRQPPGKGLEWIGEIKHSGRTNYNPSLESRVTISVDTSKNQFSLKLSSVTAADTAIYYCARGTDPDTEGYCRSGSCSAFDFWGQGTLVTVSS VL: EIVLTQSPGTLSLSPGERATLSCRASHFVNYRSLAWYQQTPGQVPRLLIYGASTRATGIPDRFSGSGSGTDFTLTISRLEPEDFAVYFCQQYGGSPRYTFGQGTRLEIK", "RLU", 13200),
]

Where do the numbers come from? From patent US20150086555A1.
